Test system: Plasmodium falciparum
Experiment: Antimalarial activity against Plasmodium falciparum 3D7 infected in human Erythrocyte assessed as reduction in plasmodial growth incubated for 48 hrs by FACS analysis
Type: functional, organism-based
Details: 3D7, Erythrocyte
Examples of molecules with documented pIC50 follow.
Give only the number. pIC50 is defined as minus log10 of concentration in molar units.

Known pIC50 results, listed for orientation:
{"columns": ["RECORD_SMILES", "MEASUREMENT"],
 "data": [
  ["CCC(CC)c1nc(-c2ccccc2)c(-c2ccccc2)[nH]1", 4.96],
  ["Brc1ccc(-c2nc(-c3ccccc3)[nH]c2-c2ccc(Br)cc2)cc1", 4.89],
  ["Fc1ccc(-c2nc(-c3ccc(Cl)cc3)c(-c3ccccc3)[nH]2)cc1", 5.19],
  ["Clc1ccc(-c2nc(-c3ccc(Br)cc3)[nH]c2-c2ccccc2)cc1", 5.10],
  ["COc1ccc(-c2nc(-c3ccc(Cl)cc3)c(-c3ccccc3)[nH]2)cc1", 4.96]
]}

input: Entry COc1ccc(-c2nc(-c3ccc(Br)cc3)c(-c3ccccc3)[nH]2)cc1 has what pIC50?
output: 5.82

---

Tested on: Plasmodium falciparum
Experiment: Antimalarial activity against Plasmodium falciparum 3D7 infected in human Erythrocyte assessed as plasmodial growth at 20 uM incubated for 48 hrs by FACS analysis relative to control
Format: functional
MEASUREMENT_NAME: Activity

Known Activity results, listed for orientation:
{"columns": ["RECORD_SMILES", "MEASUREMENT"],
 "data": [
  ["Clc1ccc(-c2nc(-c3ccc(Br)cc3)[nH]c2-c2ccccc2)cc1", "<10%"],
  ["Brc1ccc(-c2nc(-c3ccccc3)[nH]c2-c2ccc(Br)cc2)cc1", "<10%"]
]}

input: Requested read-out Activity, target or system Plasmodium falciparum, entry COc1ccc(-c2nc(-c3ccc(Br)cc3)c(-c3ccccc3)[nH]2)cc1
output: <10%

input: Requested read-out Activity, target or system Plasmodium falciparum, entry CCC(CC)c1nc(-c2ccccc2)c(-c2ccccc2)[nH]1
output: <10%

input: Requested read-out Activity, target or system Plasmodium falciparum, entry COc1ccc(-c2nc(-c3ccc(Cl)cc3)c(-c3ccccc3)[nH]2)cc1
output: <10%

input: Requested read-out Activity, target or system Plasmodium falciparum, entry Fc1ccc(-c2nc(-c3ccc(Cl)cc3)c(-c3ccccc3)[nH]2)cc1
output: <10%

---

Tested on: Hemozoin
Assay: Inhibition of beta-hematin formation assessed as reduction in hemozoin formation incubated for 20 hrs by NP40 detergent-mediated assay
Conditions: read-out: IC50
Examples of molecules with documented IC50 follow.

input: Entry c1ccc(-c2nc(C3CCCCC3)[nH]c2-c2ccccc2)cc1 has what IC50?
output: > 500 µM

input: Entry Fc1ccccc1-c1nc(-c2ccc(Cl)cc2)c(-c2ccccc2)[nH]1 has what IC50?
output: > 500 µM

input: Entry Clc1ccc(-c2nc(-c3ccccc3)[nH]c2-c2ccccc2)cc1 has what IC50?
output: > 500 µM

input: Entry O=[N+]([O-])c1cccc(-c2nc(-c3ccc(Cl)cc3)c(-c3ccccc3)[nH]2)c1 has what IC50?
output: > 500 µM

input: Entry Fc1ccccc1-c1nc(-c2ccccc2)c(-c2ccccc2)[nH]1 has what IC50?
output: > 500 µM

input: Entry Cc1ccccc1-c1nc(-c2ccccc2)c(-c2ccccc2)[nH]1 has what IC50?
output: > 500 µM
